Just for reference, ChEMBL document CHEMBL4049411 is where these values come from.

Let's look at some compounds and their measured solubility.
Assay: Aqueous solubility of compound
Assay type: physicochemical
Conditions: buffer
ASSAY READOUT: solubility (µM)

| STRUCTURE STRING | QUANTITY UNIT | CENSORING OPERATOR | READOUT NUMBER |
| --- | --- | --- | --- |
| Cc1c(-c2ccc(N3CC[C@@H](F)C3)cc2)[nH]c2cc(F)cc(F)c2c1=O | µM | = | 0.9 |
| Cc1c(-c2ccc(N3CCC[C@@H]3CO)cc2)[nH]c2cc(F)cc(F)c2c1=O | µM | = | 4 |
| Cc1c(-c2ccc(N3CCC(F)(F)C3)cc2)[nH]c2cc(F)cc(F)c2c1=O | µM | = | 0.2 |
| Cc1c(-c2ccc(N3CCCCCC3)cc2)[nH]c2cc(F)cc(F)c2c1=O | µM | < | 0.1 |
| Cc1c(-c2ccc(N3CCC[C@H](C)C3)cc2)[nH]c2cc(F)cc(F)c2c1=O | µM | < | 0.3 |
| Cc1c(-c2ccc(N3CC[C@H](F)C3)cc2)[nH]c2cc(F)cc(F)c2c1=O | µM | = | 1 |

----------
Assay: Inhibition of replicating Mycobacterium tuberculosis H37Rv NDH assessed as cell growth inhibition after 7 days by MABA method
Conditions: 168 h
ASSAY READOUT: IC50

| MOLECULE | ASSAY READOUT | RESULT |
| --- | --- | --- |
| COc1cc(OC)c2c(=O)c(C)c(-c3ccc(N4CCCCC4)cc3)[nH]c2c1 | IC50 | > 10 µM |
| Cc1c(-c2ccc(-n3cc(F)c(F)c3)cc2)[nH]c2cc(F)cc(F)c2c1=O | IC50 | > 10 µM |
| Cc1c(-c2ccc(-n3ccc4ccccc43)cc2)[nH]c2cc(F)cc(F)c2c1=O | IC50 | > 10 µM |
| Cc1c(-c2ccc(N3CCC[C@H](C)C3)cc2)[nH]c2cc(F)cc(F)c2c1=O | IC50 | 0.4 to 0.47 µM |
| COc1cc2[nH]c(-c3ccc(N4CCCCC4)cc3)c(C)c(=O)c2cc1Cl | IC50 | > 10 µM |
| Cc1c(-c2ccc(N3CCC[C@@H]3C(=O)N3CCOCC3)cc2)[nH]c2cc(F)cc(F)c2c1=O | IC50 | > 10 µM |
| Cc1c(-c2ccc(N3CCCC(C)C3)cc2)[nH]c2cc(F)cc(F)c2c1=O (configuration not stated) | IC50 | 0.367 to 0.37 µM |

----------
Assay: Inhibition of replicating Mycobacterium tuberculosis H37Rv NDH assessed as cell growth inhibition after 7 days by MABA method
Conditions: 168 h
// reported IC50 per item

| MOLECULE | IC50 |
| --- | --- |
| O=c1cc(-c2ccc(N3CCCCC3)cc2)[nH]c2ccccc12 | > 10 µM |
| Cc1c(-c2ccc(N3CCC(Cc4ccccc4)CC3)cc2)[nH]c2ccccc2c1=O | > 10 µM |
| COc1ccc2c(=O)cc(-c3ccc(N4CCCCC4)cc3)[nH]c2c1 | > 10 µM |
| Cc1c(-c2ccc(N3CCC[C@@H]3C(=O)NC3CCOCC3)cc2)[nH]c2cc(F)cc(F)c2c1=O | > 10 µM |
| COc1ccc2c(=O)cc(-c3ccc(N4CCC(F)CC4)cc3)[nH]c2c1 | > 10 µM |
| COc1ccc2c(=O)c(Cl)c(-c3ccc(N4CCCCC4)cc3)[nH]c2c1 | 2.82 µM |
| Cc1c(-c2ccc(-n3cccc3)cc2)[nH]c2cccc(F)c2c1=O | 0.71 µM |
| Cc1c(-c2ccc(N3CCC[C@@H]3C(=O)N(C)C)cc2)[nH]c2cc(F)cc(F)c2c1=O | > 10 µM |
| Cc1c(-c2ccc(N3CCC(C(F)(F)F)CC3)cc2)[nH]c2cc(F)cc(F)c2c1=O | > 10 µM |
| Cc1c(-c2ccc(N3CCCC(C)(O)C3)cc2)[nH]c2cc(F)cc(F)c2c1=O (stereo unspecified) | 5.01 µM |
| COc1ccc2c(=O)c(C)c(-c3ccc(N4CCN(Cc5ccccc5)CC4)cc3)[nH]c2c1 | > 10 µM |
| Cc1c(-c2ccc(N(C)C)cc2)[nH]c2cc(F)cc(F)c2c1=O | 0.41 µM |
| O=c1c(Cl)c(-c2ccc(N3CCC(F)CC3)cc2)[nH]c2ccccc12 | > 10 µM |
| COc1cc2[nH]c(-c3ccc(N4CCCCC4)cc3)c(C)c(=O)c2cc1OC | > 10 µM |
| Cc1c(-c2ccc(N3CC[C@H](F)C3)cc2)[nH]c2cc(F)cc(F)c2c1=O | 1.8 µM |
| Cc1c(-c2ccc(N3CCC(Cc4ccccc4)CC3)cc2)[nH]c2ccc(F)cc2c1=O | > 10 µM |
| Cc1c(-c2ccc(N3CCCC(F)C3)cc2)[nH]c2cc(F)cc(F)c2c1=O (stereo unspecified) | 0.3 to 0.31 µM |
| COc1ccc2c(=O)c(C)c(-c3ccc(N4CCC(Cc5ccccc5)CC4)cc3)[nH]c2c1 | > 10 µM |
| Cc1c(-c2ccc(N3CCCC(F)(F)C3)cc2)[nH]c2cc(F)cc(F)c2c1=O | 0.36 to 0.361 µM |
| Cc1c(-c2ccc(N3CCC(F)(F)C3)cc2)[nH]c2cc(F)cc(F)c2c1=O | 0.525 to 0.53 µM |
| Cc1c(-c2ccc(N3CCC[C@@H](C)C3)cc2)[nH]c2cc(F)cc(F)c2c1=O | 0.47 µM |
| Cc1c(-c2ccc(N3CCC(C)CC3)cc2)[nH]c2cc(F)cc(F)c2c1=O | 0.61 to 0.611 µM |
| Cc1c(-c2ccc(N3CCN(Cc4ccccc4)CC3)cc2)[nH]c2ccc(F)cc2c1=O | > 10 µM |
| Cc1c(-c2ccc(N3CC[C@@H]3C(=O)NC(C)(C)C)cc2)[nH]c2cc(F)cc(F)c2c1=O | > 10 µM |
| Cc1c(-c2ccc(-n3cccc3)cc2)[nH]c2cc(F)cc(F)c2c1=O | 0.432 to 0.44 µM |
| Cc1c(-c2ccc(N3CCC(F)(F)CC3)cc2)[nH]c2cc(F)cc(F)c2c1=O | > 10 µM |
